B1: library; a variant is named by its letters at N, in order (parent)
chain: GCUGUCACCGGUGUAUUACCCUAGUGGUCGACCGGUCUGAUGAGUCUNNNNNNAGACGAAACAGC

- Variants of: B1
- RUN DESCRIPTION: FACS-Seq fitted mean relative fluorescence mCherry/BFP with ligand (log10 relative fluorescence); ligand: hypoxanthine (xanthine aptamer); ligand concentration (+) FACS-Seq: 5 mM; higher = higher reporter protein expression
- SETTINGS: HEK293T, ligand present: yes
Entries and their measured FACS-Seq fitted mean (log10) follow.
I'd appreciate a reply containing only the number, no unit.

Known FACS-Seq fitted mean (log10) results, listed for orientation:
- MUTATION ID: "GAAUAA"
  FACS-Seq fitted mean (log10): 0.497
- MUTATION ID: "GGACGG"
  FACS-Seq fitted mean (log10): 0.584
- MUTATION ID: "CUGUUA"
  FACS-Seq fitted mean (log10): 0.493

Next, consider the following variant.
What does the data say about its FACS-Seq fitted mean (log10)? Entry: GAACUU
0.616

The measured values listed here are drawn from the supplement of paper PMC6757056.
